Hey, just so you know, these numbers are from patent US20230157952A1.

method: Effect of temperature (and pH) on the stability of the solution (purity)
Assay type: physicochemical
measurement_setup: 7% solution in water, pH 4.0, day 21, 40° C.
observed_property: Purity(%) at day 21 (40° C.)
Could you kindly put the unit after your number?

See these solved cases before continuing.
CCN(CC)CCOC(=O)CCc1ccc2cc(OC)ccc2c1.Cl; 70.7 ± 0.2%
CCN(CC)CCOC(=O)C(C)c1ccc(-c2ccccc2)c(F)c1.Cl (racemic); 72.3 ± 0.3%
CCN(CC)CCOC(=O)C(C)c1ccc2oc(-c3ccc(Cl)cc3)nc2c1.Cl (stereo not shown); 62.7 ± 0.2%

Here is another compound to look at.
Query :: Look up Purity(%) at day 21 (40° C.) for this compound: CCN(CC)CCOC(=O)Cc1c(C)n(C(=O)c2ccc(Cl)cc2)c2ccc(OC)cc12.Cl
Result :: 68.7 ± 0.3%

###

method: Effect of concentration on the stability of the solution (purity over time)
measurement_setup: 0.1 wt % in 50% ethanol, 25° C.
Each entry below lists one item and its recorded Purity(%) at Day 28 value.
Could you kindly put the unit after your number?

CCOC(=O)c1ccccc1 [Ethyl benzoate, reference compound]; 95.9%
CC(C)(C)OC(=O)C(N)Cc1ccccc1 (stereo not shown) [t-Butyl 2-amino-3-phenylpropanoate, reference compound]; 41.0%
CC(C)OC(=O)c1ccccc1 [Isopropyl benzoate, reference compound]; 98.3%

Here is another compound to look at.
Query :: Look up Purity(%) at Day 28 for this compound: CC(C)OC(=O)C(N)Cc1ccccc1 (stereo not shown) [Isopropyl 2-amino-3-phenylpropanoate, reference compound]
Result :: 95.7%

###

method: Effect of temperature (and pH) on the stability of the solution (purity)
Type: physicochemical
measurement_setup: 7% solution in water, pH 7.0, day 21, 40° C.
observed_property: Purity(%) at day 21 (40° C.)
Unit % implied. Number only.

See these solved cases before continuing.
CCN(CC)CCOC(=O)CCc1ccc2cc(OC)ccc2c1.Cl; 17.4
CCN(CC)CCOC(=O)Cc1ccc(C(=O)c2ccc(C)cc2)n1C.Cl; 5.7
CCN(CC)CCOC(=O)Cc1c(C)n(C(=O)c2ccc(Cl)cc2)c2ccc(OC)cc12.Cl; 11.4

Here is another compound to look at.
Query :: Look up Purity(%) at day 21 (40° C.) for this compound: CCN(CC)CCOC(=O)C(C)c1ccc(-c2ccccc2)c(F)c1.Cl (racemic)
Result :: 19.8

###

method: Effect of concentration on the stability of the solution (purity over time)
measurement_setup: 1 wt % in 50% ethanol, 25° C.
observed_property: Purity (%) at Day 3
Unit % implied. Number only.

See these solved cases before continuing.
CC(C)(C)OC(=O)C(N)Cc1ccccc1 (centres unmarked) [t-Butyl 2-amino-3-phenylpropanoate, reference compound]; 93.9
CC(C)OC(=O)c1ccccc1 [Isopropyl benzoate, reference compound]; 98.5
CC(C)OC(=O)C(N)Cc1ccccc1 (centres unmarked) [Isopropyl 2-amino-3-phenylpropanoate, reference compound]; 97.9

Query :: Look up Purity (%) at Day 3 for this molecule: CC(C)(C)OC(=O)c1ccccc1 [t-Butyl benzoate, reference compound]
Result :: 0.0

Query :: Next molecule up: CCOC(=O)c1ccccc1 [Ethyl benzoate, reference compound]
Result :: 97.7

###

method: Effect of concentration on the stability of the solution (purity over time)
measurement_setup: 30 wt %; in water at 25° C.
observed_property: Purity at hr 0
Could you kindly put the unit after your number?

See these solved cases before continuing.
CCN(CC)CCOC(=O)CCc1ccc2cc(OC)ccc2c1.Cl; 98.5%
CCN(CC)CCOC(=O)Cc1sc(-c2ccccc2)nc1-c1ccc(Cl)cc1.Cl; 99.1%
CCN(CC)CCOC(=O)Cc1c(C)n(C(=O)c2ccc(Cl)cc2)c2ccc(OC)cc12.Cl; 98.5%
CCN(CC)CCOC(=O)CC1=C(C)C(=Cc2ccc([S+](C)[O-])cc2)c2ccc(F)cc21.Cl (stereo not shown); 97.7%
CCN(CC)CCOC(=O)C(C)c1ccc2oc(-c3ccc(Cl)cc3)nc2c1.Cl (stereo not shown); 98.6%

Query :: Look up Purity at hr 0 for this compound: CCN(CC)CCOC(=O)CCc1nc(-c2ccccc2)c(-c2ccccc2)o1.Cl
Result :: 98.8%

Query :: Next compound up: CCN(CC)CCOC(=O)Cc1ccc(C(=O)c2ccc(C)cc2)n1C.Cl
Result :: 98.1%

###

method: Effect of concentration on the stability of the solution (purity over time)
measurement_setup: 10 wt %; in water at 25° C.
Each entry below lists one item and its recorded Purity at Day 7 value.

See these solved cases before continuing.
CCN(CC)CCOC(=O)Cc1sc(-c2ccccc2)nc1-c1ccc(Cl)cc1.Cl; 98.5%
CCN(CC)CCOC(=O)CCc1ccc2cc(OC)ccc2c1.Cl; 98.3%

Query :: Look up Purity at Day 7 for this molecule: CCN(CC)CCOC(=O)CC1=C(C)C(=Cc2ccc([S+](C)[O-])cc2)c2ccc(F)cc21.Cl (stereo not shown)
Result :: 97.3%

###

method: Stability of the pure HPDs (dry solid) at 25° C./RH 60%
Assay type: physicochemical
measurement_setup: pure HPD, 25° C./RH 60%, 6 month
Each entry below lists one item and its recorded Purity value.
Form field (numeric): enter value without unit.

See these solved cases before continuing.
CCN(CC)CCOC(=O)C(C)c1ccc(-c2ccccc2)c(F)c1.Cl (stereo not shown); 98.1
CCCCC(=O)O.CCN(CC)CCOC(=O)c1ccccc1OC(C)=O; 98.6
CC(C)Cc1ccc([C@@H](C)C(=O)OCCN(C)C)cc1.Cl (racemic); 98.1

Here is another compound to look at.
Query :: Look up Purity for this compound: CCN(CC)CCOC(=O)[C@H](C)c1ccc(CC(C)C)cc1.Cl
Result :: 98.1

###

method: Effect of concentration on the stability of the solution (purity over time)
measurement_setup: 30 wt %; in water at 25° C.
observed_property: Purity at Day 7 (%)
Unit % implied. Number only.

See these solved cases before continuing.
CCN(CC)CCOC(=O)Cc1sc(-c2ccccc2)nc1-c1ccc(Cl)cc1.Cl; 98.5
CCN(CC)CCOC(=O)C(C)c1ccc2oc(-c3ccc(Cl)cc3)nc2c1.Cl (stereo not shown); 98.3
CCN(CC)CCOC(=O)CCc1ccc2cc(OC)ccc2c1.Cl; 98.3
CCN(CC)CCOC(=O)CC1=C(C)C(=Cc2ccc([S+](C)[O-])cc2)c2ccc(F)cc21.Cl (stereo not shown); 97.5
CCN(CC)CCOC(=O)CCc1nc(-c2ccccc2)c(-c2ccccc2)o1.Cl; 98.5

Query :: Look up Purity at Day 7 for this molecule: CCN(CC)CCOC(=O)Cc1c(C)n(C(=O)c2ccc(Cl)cc2)c2ccc(OC)cc12.Cl
Result :: 98.3

Query :: Next molecule up: CCN(CC)CCOC(=O)Cc1ccc(C(=O)c2ccc(C)cc2)n1C.Cl
Result :: 97.5

###

method: Effect of concentration on the stability of the solution (purity over time)
measurement_setup: 5 wt %; in water at 25° C.
observed_property: Purity at Day 21 (%)
Unit % implied. Number only.

See these solved cases before continuing.
CCN(CC)CCOC(=O)C(C)c1ccc2oc(-c3ccc(Cl)cc3)nc2c1.Cl (stereo not shown); 97.0
CCN(CC)CCOC(=O)Cc1c(C)n(C(=O)c2ccc(Cl)cc2)c2ccc(OC)cc12.Cl; 97.1
CCN(CC)CCOC(=O)Cc1ccc(C(=O)c2ccc(C)cc2)n1C.Cl; 95.6
CCN(CC)CCOC(=O)Cc1sc(-c2ccccc2)nc1-c1ccc(Cl)cc1.Cl; 96.6

Query :: Look up Purity at Day 21 for this molecule: CCN(CC)CCOC(=O)CC1=C(C)C(=Cc2ccc([S+](C)[O-])cc2)c2ccc(F)cc21.Cl (stereo not shown)
Result :: 96.2

Query :: Next molecule up: CCN(CC)CCOC(=O)CCc1ccc2cc(OC)ccc2c1.Cl
Result :: 97.0

Query :: Next molecule up: CCN(CC)CCOC(=O)CCc1nc(-c2ccccc2)c(-c2ccccc2)o1.Cl
Result :: 96.3

###

method: Effect of temperature (and pH) on the stability of the solution (purity)
Type: physicochemical
measurement_setup: 7% solution in water, pH 3.0, day 21, 40° C.
observed_property: Purity(%) at day 21 (40° C.)
Unit % implied. Number only.

See these solved cases before continuing.
CCN(CC)CCOC(=O)C(C)c1ccc(-c2ccccc2)c(F)c1.Cl (racemic); 56.5
CCN(CC)CCOC(=O)COC(=O)Cc1c(C)n(C(=O)c2ccc(Cl)cc2)c2ccc(OC)cc12.Cl; 47.7
CCN(CC)CCOC(=O)C(C)c1ccc2oc(-c3ccc(Cl)cc3)nc2c1.Cl (centres unmarked); 45.3
CCN(CC)CCOC(=O)Cc1c(C)n(C(=O)c2ccc(Cl)cc2)c2ccc(OC)cc12.Cl; 49.3

Here is another compound to look at.
Query :: Look up Purity(%) at day 21 (40° C.) for this compound: CCN(CC)CCOC(=O)Cc1ccc(C(=O)c2ccc(C)cc2)n1C.Cl
Result :: 41.7
